Wt % Hydrotrope required to compatibilize phases values by entry
experiment description: Coupling of water and octanoic acid by hydrotropes (amount producing a single phase)
Type: physicochemical
condition label: ratio of water:octanoic acid 30:70
Please answer using a numeric value trailed by its unit.

>>> value_measured("CCO")
"37%"
>>> value_measured("CC1COC(C)(CCCO)O1 (stereo not drawn)")
"53%"

I have this compound here, COC(C)COC(C)CO (stereo not drawn) , and I need its recorded Wt % Hydrotrope required to compatibilize phases.
47%

---

experiment description: Coupling of water and octanoic acid by hydrotropes (amount producing a single phase)
Format: physicochemical
condition label: water:octanoic acid 30:70 (DI water 1.5 g, octanoic acid 3.5 g)
measured metric: Amount of hydrotrope that produced a single phase (grams)
State the answer as a number, implicitly in grams.

Some solved entries appear below for comparison.
>>> value_measured("CCO")
2.95
>>> value_measured("COC(C)COC(C)CO (stereo not drawn)")
4.52
>>> value_measured("CC1COC(C)(CCCO)O1 (stereo not drawn)")
5.63

Tell me the measured Amount of hydrotrope that produced a single phase of CCOC(=O)CCC1(C)OCC(CO)O1 (stereo not drawn) , please.
7.2

Likewise for COCC(C)O (stereo not drawn) ?
3.12

`CCCCOCCO` ?
5.39

---

experiment description: Coupling of water and octanoic acid by hydrotropes (amount producing a single phase)
Format: physicochemical
condition label: ratio of water:octanoic acid 50:50
Outcome: True for Wt % Hydrotrope required to compatibilize phases of at least 60%; False for anything lower.

Sample answers from the record:
>>> class_assignment("CCOC(=O)CCC1(C)OCC(CO)O1 (stereo not drawn) [EtLGK, glycerol ketal of ethyl levulinic acid]")
"True"
>>> class_assignment("COCC(C)O (stereo not drawn) [PM, propylene glycol methyl ether]")
"False"

Does the molecule CC1COC(C)(CCCO)O1 (stereo not drawn) [Ketal alcohol (1a)] have recorded Wt % Hydrotrope required to compatibilize phases that is 60% or more?
False

---

experiment description: Coupling of water and soy methyl ester by hydrotropes
Assay type: physicochemical
condition label: ratio of water:soy methyl esters 30:70
measured metric: Wt % Hydrotrope required to compatibilize the phases (%)
Unit % implied. Number only.

Check out these entries, answers already filled in.
>>> value_measured("CCO")
74
>>> value_measured("CC1COC(C)(CCCO)O1 (centres unmarked)")
73
>>> value_measured("CCOC(=O)CCC1(C)OCC(CO)O1 (centres unmarked)")
83
>>> value_measured("COC(C)COC(C)CO (centres unmarked)")
63

May I ask what Wt % Hydrotrope required to compatibilize the phases has been recorded for COCC(C)O (centres unmarked) ?
67

---

experiment description: Coupling of water and octanoic acid by hydrotropes (amount producing a single phase)
Type: physicochemical
condition label: ratio of water:octanoic acid 70:30
measured metric: Wt % Hydrotrope required to compatibilize phases (%)
Numbers only; they are read as %.

Past entries and their recorded results:
>>> value_measured("CCCCOCCO")
61
>>> value_measured("CCOC(=O)CCC1(C)OCC(CO)O1 (stereo not drawn)")
66
>>> value_measured("CC1COC(C)(CCCO)O1 (stereo not drawn)")
55

Request the reported Wt % Hydrotrope required to compatibilize phases associated with COCC(C)O (stereo not drawn)
42

Next: `CCO`
37

Another: COC(C)COC(C)CO (stereo not drawn)
48

---

experiment description: Coupling of water and castor oil by hydrotropes
Type: physicochemical
condition label: ratio of water to castor oil 70:30
Recorded Wt % Castor oil (at compatibilization), one value per entry.
# unit: % | format: bare number

>>> value_measured("CCO")
5
>>> value_measured("CCOC(=O)CCC1(C)OCC(CO)O1 (centres unmarked)")
4
>>> value_measured("COCC(C)O (centres unmarked)")
5

Item CC1COC(C)(CCCO)O1 (centres unmarked) has what recorded Wt % Castor oil (at compatibilization)?
5

Ok, now COC(C)COC(C)CO (centres unmarked)
5
